src = patent US20050084449A1

Kindly state Kd for each of the entries shown.
# system name: TIM-1 antigen (soluble extracellular domain of TIM-1, CG57008-02, with a V5-HIS tag) (human) (UniProt Q96D42)
# method: BIAcore 2000, mAb captured on goat anti-human surface, TIM-1 antigen injected, 25 C
Expressed in nM, but write only the number.

Query (binder): anti-TIM-1 mAb 2.61 (antibody, human IgG4, V domains shown) VH: QVQLVEAGGGVVQPGRSLRLSCAASGFTFRSYGMHWVRQAPGKGLKWVAVIWYDGSNKYYTDSVKGRFTISRDNSKNTLYLQMNSLRAEDTAVYYCVRDYYDNSRHHWGFDYWGQGTLVTVSS VL: DIQMTQSPSSRCASVGDRVTITCRASQGIRNDLAWYQQKPGKAPKRLIYAASSLQSGVPSRFSGSRSGTEFTLTISSLQPEDFAAYYCLQHNSYPPSFGQGTKLEIKR ; field requested: Kd 1

Report Kd for anti-TIM-1 mAb 2.70 (antibody, V domains shown) VH: QVQLVESGGGVVQPGRSLRLSCAASGFIFSRYGMHWVRQAPGKGLKWVAVIWYDGSNKLYADSVKGRFTISRDNSKNTLYLQMNSLRAEDTAVYYCARDYYDNSRHHWGFDYWGQGTLVTVSS VL: DIVMTQTPLSLPVTPGEPASISCRSSRSLLDSDDGNTYLDWYLQKPGQSPQLLIYTLSYRASGVPDRFSGSGSGTDFTLKISRVEAEDVGVYYCMQRVEFPITFGQGTRLEIKR please. 2.71

Bench note: what Kd did anti-TIM-1 mAb 1.37 (antibody, human IgG2, V domains shown) VH: EVQLVESGGGLVQPGGSLRLSCAASGFTFTNYWMSWVRQAPGKGLEWVANIQQDGSEKYYVDSVRGRFTISRDNAKNSLYLQMNSLRAEDSAVYYCARWDYWGQGTLVTVSS VL: DIVMTQTPLSSTVILGQPASISCRSSQSLVHSDGNTYLNWLQQRPGQPPRLLIYMISNRFSGVPDRFSGSGAGTDFTLKISRVEAEDVGVYYCMQATESPQTFGQGTKVEIKR show? 2.78

Item under review: anti-TIM-1 mAb 1.29 (antibody, human IgG2, V domains shown) VH: QVQLQESGPGLVKPSETLSLTCTVSGGSVSSGGYYWSWIRQPPGKGLEWIGFIYYTGSTNYNPSLKSRVSISVDTSKNQFSLKLSSVTAADAAVYYCARDYDWSFHFDYWGQGTLVTVSS VL: DIQMTQSPSSLSASIGDRVTITCRASQGIRNDLGWYQQKPGKAPKRLIYAASSLQSGVPSRFSGSGSGTEFTLTISSLQPEDFATYYCLQHNSYPLTFGGGTKVEIKR . Reported Kd? 3.64
